From: patent US9556159B2

experimentalSystem: Recombinant human renin (Homo sapiens, UniProt P00797)
Sequence (P00797 67-406): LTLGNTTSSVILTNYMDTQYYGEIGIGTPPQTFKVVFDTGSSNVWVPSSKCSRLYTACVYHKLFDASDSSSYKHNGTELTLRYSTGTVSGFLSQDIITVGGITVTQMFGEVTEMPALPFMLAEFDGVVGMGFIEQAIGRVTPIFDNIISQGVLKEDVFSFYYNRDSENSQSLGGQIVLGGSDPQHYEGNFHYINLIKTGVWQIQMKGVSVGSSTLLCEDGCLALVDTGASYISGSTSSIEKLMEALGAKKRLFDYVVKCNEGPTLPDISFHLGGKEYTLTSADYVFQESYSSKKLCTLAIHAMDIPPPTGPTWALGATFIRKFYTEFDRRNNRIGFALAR
testSummary: Inhibitory activity against human renin (fluorogenic peptide substrate)
Format: biochemical
settings: 50% inhibitory concentration (IC50) against human renin, 37° C. for 1 hour
metric: IC50 (nM)

# annotated cases, reported IC50 shown
COC(=O)NCCCc1cc(C2CC2)nc([C@@H](C)N(C(=O)[C@H]2CNCCO2)C2CC2)c1 has a reported IC50 of 1.6

Entry CCOc1ncc([C@@H](C)N(C(=O)[C@H]2CNCCO2)C2CC2)nc1CCCNC(=O)OC , IC50 reported as 2

Notebook: COC(=O)NCCCn1cc([C@H](C)N(C(=O)[C@H]2CNCCO2)C2CC2)nc1Oc1ccccc1 , IC50 read as 2.5

The compound listed as COC(=O)NCCCn1nc([C@@H](C)N(C(=O)[C@H]2CNCC(C)(C)O2)C2CC2)c2ccc(C)nc21 shows IC50 equal to 7

[P] CCCCCn1cc([C@@H](C)N(C(=O)[C@H]2CNCCO2)C2CC2)nc1-c1ccccc1
[Q] CC[C@H]1CO[C@@H](C(=O)N(C2CC2)[C@@H](C)c2cn(CCCNC(=O)OC)c(OC(C)C)n2)CN1
[R] C[C@H](c1cn(Cc2cccc(F)c2)c(-c2ccccc2)n1)N(C(=O)[C@H]1CNCCO1)C1CC1
[S] COC(=O)NCCCc1cc([C@@H](C)N(C(=O)[C@H]2CNC[C@@H](C)O2)C2CC2)nn1-c1cccc(C(F)(F)F)c1
Q: Number of compounds to sort: 4. Sort criterion: IC50, ascending. Please respond by ranking the labels in the order requested.
Ans: S, Q, R, P

[I] COC(=O)NCCCn1nc([C@@H](C)N(C(=O)[C@H]2CNCCO2)C2CC2)cc1C(C)(C)c1ccccc1
[II] COCCOc1cc([C@@H](C)N(C(=O)[C@H]2CNC[C@@H](COC)O2)C2CC2)cc(CCCNC(=O)OC)n1
Q: Select the item with the higher value of IC50 from the options I and II listed. Return value: the label identifying the chosen record.
Ans: I
(I: 4.4 nM, II: 1.3 nM)

[P] CCc1nc([C@@H](C)N(C(=O)[C@H]2CNCCO2)C2CC2)cc2c1ncn2CCCOC
[Q] COC(=O)NCCCn1nc([C@@H](C)N(C(=O)[C@H]2CN[C@@H](CF)CO2)C2CC2)c2ccc(C)nc21
Q: Between the entries labeled P and Q , whose measured IC50 is lower? Indicate which entry you chose by stating its label.
Ans: P
(P: 1.8 nM, Q: 6.8 nM)

###

experimentalSystem: Recombinant human renin (Homo sapiens, UniProt P00797)
testSummary: Inhibitory activity against human renin (fluorogenic peptide substrate)
Assay type: biochemical
settings: 50% inhibitory concentration (IC50) against human renin, 37° C. for 1 hour
metric: IC50 (nM)

Some compounds with recorded IC50:
Entry COC(=O)NCCCc1nc([C@@H](C)N(C(=O)[C@H]2CNCCO2)C2CC2)cnc1O[C@@H]1CCOC1 [Example 433] — recorded IC50 = 5.3

Recorded result, COC(=O)NCCCn1nc([C@@H](C)N(C(=O)[C@H]2CNCCO2)C2CC2)cc1-c1ccccc1F [Example 173] , IC50: 0.3

Kindly note the recorded IC50 for COC(=O)NCCCc1nc(C(C)N(C(=O)[C@H]2CNCCO2)C2CC2)nn1-c1cccc(Cl)c1 (some centres unmarked) [Example 360] , which is 7.6

The compound listed as COC(=O)NCCCc1cc([C@@H](C)N(C(=O)[C@H]2CNCCO2)C2CC2)sc1-c1ccccc1-c1n[nH]c(=O)o1 [Example 276] shows IC50 equal to 0.5

Per the record, COC(=O)NCCCc1cc([C@@H](C)N(C(=O)[C@H]2CNCCO2)C2CC2)sc1-c1cccc(F)c1O [Example 274] has IC50 of 0.5

Per the records, this compound ( CCc1ncc([C@@H](C)N(C(=O)[C@H]2CNCCO2)C2CC2)cc1CCCCOC [Example 126] ) has IC50 equal to 6

[a] COC(=O)NCCCn1cc([C@@H](C)N(C(=O)[C@H]2CNCCO2)C2CC2)c2cnc(C)cc21 [Example 135]
[b] COC(=O)NCCCn1nc([C@@H](C)N(C(=O)[C@H]2CNC[C@@H](C)O2)C2CC2)c2ccc(C)nc21 [Example 250]
Q: Which has the higher IC50, a or b ? Reply with the label of the item you choose.
Ans: a

###

experimentalSystem: Recombinant human renin (Homo sapiens)
testSummary: Inhibitory activity against human renin (fluorogenic peptide substrate)
Assay type: biochemical
settings: 50% inhibitory concentration (IC50) against human renin, 37° C. for 1 hour
pIC50: −log10 of the molar value.
metric: pIC50

[1] COC(=O)NCCCn1nc([C@@H](C)N(C(=O)[C@H]2CNC[C@@H](CO)O2)C2CC2)c2ccc(C)nc21
[2] COC[C@@H]1CNC[C@H](C(=O)N(C2CC2)[C@H](C)c2cc(OC)c3ccccc3n2)O1
Q: Which is greater in pIC50, the first item 1 or the second item 2 ? When you have decided, please share the label of that item.
Ans: 1
(1: 9.40, 2: 8.39)

[P] COC(=O)NCCCc1cc(C(C)N(C(=O)[C@H]2CNC[C@@H](C)O2)C2CC2)nn1-c1ccccc1C(F)(F)F (stereo partly shown)
[Q] COC(=O)NCCCn1nc([C@@H](C)N(C(=O)[C@H]2CNC[C@@H](C(=O)NCc3ccccc3)O2)C2CC2)c2ccc(C)nc21
Q: Looking at recorded values for pIC50, does P or Q come in lower? State your choice using its label.
Ans: P

[P] COC(=O)NCCCn1cc([C@@H](C)N(C(=O)[C@H]2CNCCO2)C2CC2)nc1-c1ccc(Cl)cc1
[Q] COC[C@H]1CO[C@@H](C(=O)N(C2CC2)[C@@H](C)c2cnc(OC)c(CCCNC(=O)OC)c2)CN1
Q: For the pair P and Q , which member has the lower pIC50 number? Select an item and report its label.
Ans: Q

###

experimentalSystem: Recombinant human renin (Homo sapiens, UniProt P00797)
testSummary: Inhibitory activity against human renin (fluorogenic peptide substrate)
Type: biochemical
settings: 37° C. for 1 hour, read-out: IC50
metric: IC50 (nM)

Reference set (3 entries):
Please fill in: IC50 reported for COCc1cccc2c([C@@H](C)N(C(=O)[C@H]3CNCCO3)C3CC3)nn(CCCNC(=O)OC)c12 = 0.4

get_value(item= COC(=O)NCCCc1cc(F)cc([C@@H](C)N(C(=O)[C@H]2CNCCO2)C2CC2)c1 , readout=IC50) returns 1.9

The value of IC50 measured for the molecule CCOc1ccc([C@@H](C)N(C(=O)[C@H]2CNCCO2)C2CC2)cc1CCCNC(=O)OC turned out to be 0.7

[I] COC(=O)NCCCn1nc([C@@H](C)N(C(=O)[C@H]2CNCCO2)C2CC2)c2ccc(C(C)C)nc21
[II] COC(=O)NCCCc1cc([C@@H](C)N(C(=O)[C@H]2CNCCO2)C2CC2)cc(C(C)C)n1
[III] COCCCCn1cc([C@@H](C)N(C(=O)[C@H]2CNCCO2)C2CC2)c2ncc(C3CC3)cc21
Q: Falling order of IC50, please. To answer, write out the labels according to the requested order.
Ans: II, I, III

###

experimentalSystem: Recombinant human renin (Homo sapiens, UniProt P00797)
testSummary: Inhibitory activity against human renin (fluorogenic peptide substrate)
Format: biochemical
settings: 37° C. for 1 hour, read-out: IC50
metric: IC50 (nM)

Answered examples (6):
COCCCc1cn(C)c2cnc([C@@H](C)N(C(=O)[C@H]3CNCCO3)C3CC3)cc12 has a reported IC50 of 5.3

Record COCCCN1C(=O)C(C)(C)c2ccc([C@@H](C)N(C(=O)[C@H]3CNCCO3)C3CC3)cc21 , field IC50: 3.4

Item: COCc1ccc([C@@H](C)N(C(=O)[C@H]2CNCCO2)C2CC2)cc1OCCNC(=O)OC | IC50: 7.2

Lab book: IC50 of COCCCCc1cc([C@@H](C)N(C(=O)[C@H]2CNCCO2)C2CC2)cc(C(C)C)n1 noted as 0.9

Looking up COCCCCn1cc([C@@H](C)N(C(=O)[C@H]2CNCCO2)C2CC2)c2ncc(OC)cc21 , I found its IC50 recorded as 0.7

// sample COC[C@@H]1CNC[C@H](C(=O)N(C2CC2)[C@H](C)c2cc(CCCNC(=O)OC)nc(OC)c2)O1 , its IC50 was 0.3

[a] COC(=O)NCCCn1nc([C@@H](C)N(C(=O)[C@H]2CNCCO2)C2CC2)c2ccc(CN(C)C)nc21
[b] COC(=O)NCCCn1nc([C@@H](C)N(C(=O)[C@H]2CNCCO2)C2CC2)c2ccc(CO)cc21
Q: Lab note: check whether a or b shows the higher recorded IC50. API: response body contains the label of the selected item.
Ans: a

[P] COCCCn1cc(CCCNC(=O)OC)c2cnc([C@@H](C)N(C(=O)[C@H]3CNCCO3)C3CC3)cc21
[Q] COCCCCn1cc([C@@H](C)N(C(=O)[C@H]2CNCCO2)C2CC2)c2nccnc21
[R] COCc1ccc2c([C@@H](C)N(C(=O)[C@H]3CNCCO3)C3CC3)nn(CCCNC(=O)OC)c2n1
[S] COC[C@@H]1CNC[C@H](C(=O)N(C2CC2)[C@H](C)c2nn(CCCNC(=O)OC)c3nc(C)ccc23)O1
[T] COC(=O)NCCCn1cc([C@@H](C)N(C(=O)[C@H]2CNCCO2)C2CC2)c2nccc(C)c21
Q: Hi! Can you put these in order of IC50, lowest number first? Write the labels, ordered according to the request.
Ans: S, T, R, P, Q
(S: 0.3 nM, T: 0.5 nM, R: 1.2 nM, P: 2.1 nM, Q: 5.7 nM)

[a] CCc1cnc2c([C@@H](C)N(C(=O)[C@H]3CNCCO3)C3CC3)cn(CCCCOC)c2c1
[b] COC(=O)NCCCc1cc(OC)cc([C@@H](C)N(C(=O)[C@H]2CNCCO2)C2CC2)c1
Q: Min IC50? a | b I would appreciate it if you answered with the label of your choice.
Ans: a
